# TARGET OR TEST SYSTEM: MLK1 (Homo sapiens (Human), UniProt P80192)
# Sequence (P80192 whole entry): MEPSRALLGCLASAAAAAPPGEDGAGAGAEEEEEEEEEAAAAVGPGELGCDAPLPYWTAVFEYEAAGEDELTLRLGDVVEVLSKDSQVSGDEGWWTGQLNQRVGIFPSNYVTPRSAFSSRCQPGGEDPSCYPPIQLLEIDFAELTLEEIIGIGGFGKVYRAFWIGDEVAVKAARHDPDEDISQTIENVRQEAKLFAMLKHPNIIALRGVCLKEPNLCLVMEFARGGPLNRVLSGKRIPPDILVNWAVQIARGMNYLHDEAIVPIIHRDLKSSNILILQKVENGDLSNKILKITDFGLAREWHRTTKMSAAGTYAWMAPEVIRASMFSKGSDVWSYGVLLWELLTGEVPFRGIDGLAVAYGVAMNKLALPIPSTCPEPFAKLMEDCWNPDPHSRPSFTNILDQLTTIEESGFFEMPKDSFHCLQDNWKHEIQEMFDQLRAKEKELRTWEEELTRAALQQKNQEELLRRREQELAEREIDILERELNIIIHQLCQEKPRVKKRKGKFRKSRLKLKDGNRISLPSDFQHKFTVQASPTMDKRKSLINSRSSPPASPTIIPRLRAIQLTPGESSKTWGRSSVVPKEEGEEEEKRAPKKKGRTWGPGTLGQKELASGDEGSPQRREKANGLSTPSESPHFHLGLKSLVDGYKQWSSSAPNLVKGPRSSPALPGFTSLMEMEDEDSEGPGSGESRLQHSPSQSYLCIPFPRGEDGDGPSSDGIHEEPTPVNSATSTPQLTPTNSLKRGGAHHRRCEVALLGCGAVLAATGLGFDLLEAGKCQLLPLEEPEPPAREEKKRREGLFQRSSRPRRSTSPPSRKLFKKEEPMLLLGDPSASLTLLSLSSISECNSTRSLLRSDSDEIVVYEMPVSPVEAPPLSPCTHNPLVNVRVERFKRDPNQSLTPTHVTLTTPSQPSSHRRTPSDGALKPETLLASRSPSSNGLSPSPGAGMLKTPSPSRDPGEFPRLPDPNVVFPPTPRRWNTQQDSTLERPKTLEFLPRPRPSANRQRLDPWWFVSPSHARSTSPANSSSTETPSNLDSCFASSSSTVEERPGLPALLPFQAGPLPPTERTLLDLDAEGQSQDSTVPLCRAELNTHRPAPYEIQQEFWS
# METHOD NOTES: KinaseProfiler off-target kinase profiling
# Format: biochemical
# CONDITION INFO: 10 μM, ATP near Km
REPORTED PROPERTY: Avg. POC

**Q:** Given Cc1c(-c2ccc(=O)n(C)c2)nn(-c2ccccc2)c1NC(=O)NC1CN(CC(F)(F)F)Cc2ccccc21 (stereo not shown) , state its recorded Avg. POC.
**A:** 105.5 POC

**Q:** Given Cc1c(-c2cnn(C)c2)nn(-c2ccccc2)c1NC(=O)NC1CCOc2cc(F)ccc21 (stereo not shown) , state its recorded Avg. POC.
**A:** 103.5 POC

**Q:** Given COCc1ccc2c(c1)C(NC(=O)Nc1c(C)c(-c3cnn(C)c3)nn1-c1ccccc1)COC2 (stereo not shown) , state its recorded Avg. POC.
**A:** 104.5 POC

**Q:** Given Cc1c(-c2cnn(C)c2)nn(-c2ccccc2)c1NC(=O)N[C@H]1CCCc2ccccc21 , state its recorded Avg. POC.
**A:** 75 POC

---

# TARGET OR TEST SYSTEM: Mer (Homo sapiens (Human))
# Sequence (Q12866 21-999): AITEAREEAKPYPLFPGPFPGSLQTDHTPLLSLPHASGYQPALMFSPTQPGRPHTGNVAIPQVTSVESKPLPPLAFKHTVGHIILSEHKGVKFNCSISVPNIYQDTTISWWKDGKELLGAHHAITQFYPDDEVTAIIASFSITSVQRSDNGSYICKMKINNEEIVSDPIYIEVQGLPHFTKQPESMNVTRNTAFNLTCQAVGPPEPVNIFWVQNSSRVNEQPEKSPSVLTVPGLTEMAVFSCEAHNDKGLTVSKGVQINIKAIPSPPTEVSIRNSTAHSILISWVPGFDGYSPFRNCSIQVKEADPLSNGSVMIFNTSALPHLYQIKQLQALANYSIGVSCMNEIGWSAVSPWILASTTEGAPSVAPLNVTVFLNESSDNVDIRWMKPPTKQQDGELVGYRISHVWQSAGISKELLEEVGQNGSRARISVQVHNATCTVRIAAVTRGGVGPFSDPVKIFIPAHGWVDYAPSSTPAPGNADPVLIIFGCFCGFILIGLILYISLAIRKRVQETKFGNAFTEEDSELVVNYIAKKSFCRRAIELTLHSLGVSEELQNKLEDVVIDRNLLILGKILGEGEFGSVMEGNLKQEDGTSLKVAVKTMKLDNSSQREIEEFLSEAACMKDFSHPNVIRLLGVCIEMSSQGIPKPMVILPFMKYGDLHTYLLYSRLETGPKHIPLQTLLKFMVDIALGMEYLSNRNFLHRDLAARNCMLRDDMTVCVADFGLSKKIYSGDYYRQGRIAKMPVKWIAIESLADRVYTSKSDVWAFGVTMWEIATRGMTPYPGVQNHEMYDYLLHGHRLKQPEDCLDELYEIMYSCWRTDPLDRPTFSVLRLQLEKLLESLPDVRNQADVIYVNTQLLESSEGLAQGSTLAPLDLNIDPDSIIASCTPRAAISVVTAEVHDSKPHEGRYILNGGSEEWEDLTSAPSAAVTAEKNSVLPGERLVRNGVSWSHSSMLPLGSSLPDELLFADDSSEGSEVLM
# METHOD NOTES: KinaseProfiler off-target kinase profiling
# Type: biochemical
# CONDITION INFO: 10 μM, ATP near Km
I'd be grateful if you could share measured Avg. POC for these entries.
Only the number, expressed in POC, is required.

**Q:** Given Cc1c(-c2ccc(=O)n(C)c2)nn(-c2ccccc2)c1NC(=O)NC1CN(CC(F)(F)F)Cc2ccccc21 (stereo not shown) , state its recorded Avg. POC.
**A:** 98

**Q:** Given COCc1ccc2c(c1)C(NC(=O)Nc1c(C)c(-c3cnn(C)c3)nn1-c1ccccc1)COC2 (stereo not shown) , state its recorded Avg. POC.
**A:** 104

**Q:** Given Cc1c(-c2cnn(C)c2)nn(-c2ccccc2)c1NC(=O)NC1CCOc2cc(F)ccc21 (stereo not shown) , state its recorded Avg. POC.
**A:** 98

**Q:** Given Cc1c(-c2cnn(C)c2)nn(-c2ccccc2)c1NC(=O)N[C@H]1CCCc2ccccc21 , state its recorded Avg. POC.
**A:** 109.5

---

# TARGET OR TEST SYSTEM: MST1 (Homo sapiens (Human), UniProt Q13043)
# Sequence (Q13043 whole entry): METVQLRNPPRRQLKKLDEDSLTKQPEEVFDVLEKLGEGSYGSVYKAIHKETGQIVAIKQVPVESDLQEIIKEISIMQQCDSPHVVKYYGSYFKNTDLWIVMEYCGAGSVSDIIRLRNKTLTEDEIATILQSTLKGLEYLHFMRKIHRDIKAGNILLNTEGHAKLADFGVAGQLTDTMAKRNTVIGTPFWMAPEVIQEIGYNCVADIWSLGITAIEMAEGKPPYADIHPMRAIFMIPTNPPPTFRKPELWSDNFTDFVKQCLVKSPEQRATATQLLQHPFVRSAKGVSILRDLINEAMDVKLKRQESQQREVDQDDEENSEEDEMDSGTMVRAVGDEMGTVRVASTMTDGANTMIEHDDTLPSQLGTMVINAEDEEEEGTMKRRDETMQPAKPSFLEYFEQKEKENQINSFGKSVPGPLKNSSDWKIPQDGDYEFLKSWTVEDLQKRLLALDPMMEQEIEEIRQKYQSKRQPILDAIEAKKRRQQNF
# METHOD NOTES: KinaseProfiler off-target kinase profiling
# Assay type: biochemical
# CONDITION INFO: 10 μM, ATP near Km
I'd be grateful if you could share measured Avg. POC for these entries.

**Q:** Given Cc1c(-c2ccc(=O)n(C)c2)nn(-c2ccccc2)c1NC(=O)NC1CN(CC(F)(F)F)Cc2ccccc21 (stereo not shown) , state its recorded Avg. POC.
**A:** 102 POC

**Q:** Given Cc1c(-c2cnn(C)c2)nn(-c2ccccc2)c1NC(=O)NC1CCOc2cc(F)ccc21 (stereo not shown) , state its recorded Avg. POC.
**A:** 92 POC

**Q:** Given Cc1c(-c2cnn(C)c2)nn(-c2ccccc2)c1NC(=O)N[C@H]1CCCc2ccccc21 , state its recorded Avg. POC.
**A:** 111.5 POC

**Q:** Given COCc1ccc2c(c1)C(NC(=O)Nc1c(C)c(-c3cnn(C)c3)nn1-c1ccccc1)COC2 (stereo not shown) , state its recorded Avg. POC.
**A:** 105.5 POC

---

# TARGET OR TEST SYSTEM: DAPK3 (Homo sapiens (Human))
# Sequence (O43293 whole entry): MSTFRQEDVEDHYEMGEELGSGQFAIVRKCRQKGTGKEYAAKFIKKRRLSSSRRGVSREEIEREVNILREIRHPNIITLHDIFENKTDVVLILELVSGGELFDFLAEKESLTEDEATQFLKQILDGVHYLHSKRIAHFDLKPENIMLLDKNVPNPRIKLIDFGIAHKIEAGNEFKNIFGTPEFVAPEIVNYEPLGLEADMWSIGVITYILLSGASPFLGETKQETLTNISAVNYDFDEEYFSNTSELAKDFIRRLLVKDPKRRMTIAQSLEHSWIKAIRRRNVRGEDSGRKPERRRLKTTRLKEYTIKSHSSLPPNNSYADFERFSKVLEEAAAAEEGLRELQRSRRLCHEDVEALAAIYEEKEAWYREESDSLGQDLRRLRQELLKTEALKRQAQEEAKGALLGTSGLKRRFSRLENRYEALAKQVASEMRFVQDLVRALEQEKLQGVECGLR
# METHOD NOTES: KinaseProfiler off-target kinase profiling
# Type: biochemical
# CONDITION INFO: 10 μM, ATP near Km
# Experimental: Representative compounds (Examples 12, 32, 26 and 2) of the invention were tested for off-target kinase activity at a concentration of 10 μM by Millipore, Inc. in their KinaseProfiler™ service against all the kinases available in their full kinase panel. Compounds were run in duplicate at a concentration of ATP near the Km for each individual kinase according to Millipore's specifications. […]
I'd be grateful if you could share measured Avg. POC for these entries.
Only the number, expressed in POC, is required.

**Q:** Given Cc1c(-c2ccc(=O)n(C)c2)nn(-c2ccccc2)c1NC(=O)NC1CN(CC(F)(F)F)Cc2ccccc21 (stereo not shown) , state its recorded Avg. POC.
**A:** 103

**Q:** Given COCc1ccc2c(c1)C(NC(=O)Nc1c(C)c(-c3cnn(C)c3)nn1-c1ccccc1)COC2 (stereo not shown) , state its recorded Avg. POC.
**A:** 111

**Q:** Given Cc1c(-c2cnn(C)c2)nn(-c2ccccc2)c1NC(=O)N[C@H]1CCCc2ccccc21 , state its recorded Avg. POC.
**A:** 125.5

**Q:** Given Cc1c(-c2cnn(C)c2)nn(-c2ccccc2)c1NC(=O)NC1CCOc2cc(F)ccc21 (stereo not shown) , state its recorded Avg. POC.
**A:** 103

---

# TARGET OR TEST SYSTEM: Plk2 (Homo sapiens (Human))
# Sequence (Q9NYY3 whole entry): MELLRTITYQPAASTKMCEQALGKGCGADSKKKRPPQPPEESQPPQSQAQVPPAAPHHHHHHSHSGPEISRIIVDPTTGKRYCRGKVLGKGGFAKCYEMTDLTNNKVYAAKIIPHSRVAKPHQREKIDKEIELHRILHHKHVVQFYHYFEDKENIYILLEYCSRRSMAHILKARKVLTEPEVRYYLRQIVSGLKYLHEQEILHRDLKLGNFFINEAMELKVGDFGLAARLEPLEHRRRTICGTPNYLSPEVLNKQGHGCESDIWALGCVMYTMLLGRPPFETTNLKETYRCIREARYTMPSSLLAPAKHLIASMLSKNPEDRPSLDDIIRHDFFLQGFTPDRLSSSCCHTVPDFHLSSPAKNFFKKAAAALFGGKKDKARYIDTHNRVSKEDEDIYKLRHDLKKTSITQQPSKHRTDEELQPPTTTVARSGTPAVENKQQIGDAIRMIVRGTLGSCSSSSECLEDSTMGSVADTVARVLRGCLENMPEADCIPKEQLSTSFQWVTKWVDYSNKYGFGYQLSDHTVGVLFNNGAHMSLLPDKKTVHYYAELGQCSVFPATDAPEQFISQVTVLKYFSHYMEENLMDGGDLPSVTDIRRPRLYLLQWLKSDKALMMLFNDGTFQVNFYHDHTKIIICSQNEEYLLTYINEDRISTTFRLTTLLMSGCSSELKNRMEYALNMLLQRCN
# METHOD NOTES: KinaseProfiler off-target kinase profiling
# Assay type: biochemical
# CONDITION INFO: 10 μM, ATP near Km
REPORTED PROPERTY: Avg. POC (POC)
Only the number, expressed in POC, is required.

**Q:** Given COCc1ccc2c(c1)C(NC(=O)Nc1c(C)c(-c3cnn(C)c3)nn1-c1ccccc1)COC2 (stereo not shown) , state its recorded Avg. POC.
**A:** 103

**Q:** Given Cc1c(-c2cnn(C)c2)nn(-c2ccccc2)c1NC(=O)N[C@H]1CCCc2ccccc21 , state its recorded Avg. POC.
**A:** 102

**Q:** Given Cc1c(-c2ccc(=O)n(C)c2)nn(-c2ccccc2)c1NC(=O)NC1CN(CC(F)(F)F)Cc2ccccc21 (stereo not shown) , state its recorded Avg. POC.
**A:** 101.5

**Q:** Given Cc1c(-c2cnn(C)c2)nn(-c2ccccc2)c1NC(=O)NC1CCOc2cc(F)ccc21 (stereo not shown) , state its recorded Avg. POC.
**A:** 103.5

---

# TARGET OR TEST SYSTEM: TEC Activated (Homo sapiens (Human), UniProt P42680)
# Sequence (P42680 whole entry): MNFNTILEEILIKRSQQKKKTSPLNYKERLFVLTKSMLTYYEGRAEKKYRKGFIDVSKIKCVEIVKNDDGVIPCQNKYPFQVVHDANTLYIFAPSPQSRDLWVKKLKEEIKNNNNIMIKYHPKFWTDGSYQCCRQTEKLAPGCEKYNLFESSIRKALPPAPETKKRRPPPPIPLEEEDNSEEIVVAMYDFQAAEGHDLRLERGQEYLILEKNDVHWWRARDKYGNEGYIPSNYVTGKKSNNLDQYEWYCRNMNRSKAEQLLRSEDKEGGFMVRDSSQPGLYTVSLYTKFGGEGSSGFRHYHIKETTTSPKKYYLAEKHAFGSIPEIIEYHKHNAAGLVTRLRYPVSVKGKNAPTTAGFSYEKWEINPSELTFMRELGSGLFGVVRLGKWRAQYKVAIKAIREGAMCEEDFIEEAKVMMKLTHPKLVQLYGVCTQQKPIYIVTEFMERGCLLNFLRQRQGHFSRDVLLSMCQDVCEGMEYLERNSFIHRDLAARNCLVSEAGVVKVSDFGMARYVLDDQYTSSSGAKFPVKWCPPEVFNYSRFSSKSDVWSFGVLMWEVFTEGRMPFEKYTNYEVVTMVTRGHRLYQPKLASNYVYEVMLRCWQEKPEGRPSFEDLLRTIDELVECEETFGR
# METHOD NOTES: KinaseProfiler off-target kinase profiling
# Assay type: biochemical
# CONDITION INFO: 10 μM, ATP near Km
I'd be grateful if you could share measured Avg. POC for these entries.

**Q:** Given Cc1c(-c2ccc(=O)n(C)c2)nn(-c2ccccc2)c1NC(=O)NC1CN(CC(F)(F)F)Cc2ccccc21 (stereo not shown) , state its recorded Avg. POC.
**A:** 113.5 POC

**Q:** Given COCc1ccc2c(c1)C(NC(=O)Nc1c(C)c(-c3cnn(C)c3)nn1-c1ccccc1)COC2 (stereo not shown) , state its recorded Avg. POC.
**A:** 108.5 POC

**Q:** Given Cc1c(-c2cnn(C)c2)nn(-c2ccccc2)c1NC(=O)NC1CCOc2cc(F)ccc21 (stereo not shown) , state its recorded Avg. POC.
**A:** 122.5 POC

**Q:** Given Cc1c(-c2cnn(C)c2)nn(-c2ccccc2)c1NC(=O)N[C@H]1CCCc2ccccc21 , state its recorded Avg. POC.
**A:** 153 POC

---

# TARGET OR TEST SYSTEM: PKD1 (Homo sapiens (Human))
# METHOD NOTES: KinaseProfiler off-target kinase profiling
# Assay type: biochemical
# CONDITION INFO: 10 μM, ATP near Km
I'd be grateful if you could share measured Avg. POC for these entries.
Phrase the answer as number then unit, nothing more needed.

**Q:** Given Cc1c(-c2cnn(C)c2)nn(-c2ccccc2)c1NC(=O)N[C@H]1CCCc2ccccc21 , state its recorded Avg. POC.
**A:** 110.5 POC

**Q:** Given COCc1ccc2c(c1)C(NC(=O)Nc1c(C)c(-c3cnn(C)c3)nn1-c1ccccc1)COC2 (stereo not shown) , state its recorded Avg. POC.
**A:** 98.5 POC

**Q:** Given Cc1c(-c2ccc(=O)n(C)c2)nn(-c2ccccc2)c1NC(=O)NC1CN(CC(F)(F)F)Cc2ccccc21 (stereo not shown) , state its recorded Avg. POC.
**A:** 113.5 POC

**Q:** Given Cc1c(-c2cnn(C)c2)nn(-c2ccccc2)c1NC(=O)NC1CCOc2cc(F)ccc21 (stereo not shown) , state its recorded Avg. POC.
**A:** 115 POC

---

I'd be grateful if you could share measured Avg. POC for these entries.
# TARGET OR TEST SYSTEM: MINK (Homo sapiens (Human))
# METHOD NOTES: KinaseProfiler off-target kinase profiling
# Assay type: biochemical
# CONDITION INFO: 10 μM, ATP near Km
Only the number, expressed in POC, is required.

**Q:** Given Cc1c(-c2cnn(C)c2)nn(-c2ccccc2)c1NC(=O)N[C@H]1CCCc2ccccc21 [Example 2] , state its recorded Avg. POC.
**A:** 110.5

**Q:** Given Cc1c(-c2ccc(=O)n(C)c2)nn(-c2ccccc2)c1NC(=O)NC1CN(CC(F)(F)F)Cc2ccccc21 (stereo not shown) [Example 26] , state its recorded Avg. POC.
**A:** 126.5

**Q:** Given Cc1c(-c2cnn(C)c2)nn(-c2ccccc2)c1NC(=O)NC1CCOc2cc(F)ccc21 (stereo not shown) [Example 12] , state its recorded Avg. POC.
**A:** 102

**Q:** Given COCc1ccc2c(c1)C(NC(=O)Nc1c(C)c(-c3cnn(C)c3)nn1-c1ccccc1)COC2 (stereo not shown) [Example 32] , state its recorded Avg. POC.
**A:** 124
